Where do these numbers come from? They come from PubChem BioAssay (NCI).

test system: NCI-H522 lung; assay: NCI-60 one-dose screen, 48 h; details: 10 µM unless noted
About 83,000 compounds went through this panel and 20% of them were active in at least one assay; those are over-represented in the sample as a whole. Calls of active or inactive are those of the source. Rule for the calls: active = growth percent below 10; inactive = the rest.
Classes used: YES = active, NO = inactive

{"MOLECULE": "Cc1ccccc1CNc1c2ccccc2nc2ccccc12", "TARGET_OF_ASSAY": "NCI-H522 lung", "CLASSIFICATION": "NO"}
{"MOLECULE": "CCCCN1C(=O)/C(=c2\\sc3n(c2=O)NC2C(N=3)N(CC)C(=O)N2CC)c2ccccc21 (stereo not given)", "TARGET_OF_ASSAY": "NCI-H522 lung", "CLASSIFICATION": "NO"}
{"MOLECULE": "O=C1OCC2=C1C(c1cccc(F)c1)c1cc3c(cc1N2CCO)OCO3 (stereo not given)", "TARGET_OF_ASSAY": "NCI-H522 lung", "CLASSIFICATION": "NO"}
{"MOLECULE": "CCOC(=O)c1c(NC(=O)CSc2n[nH]c3nc4ccccc4n23)sc(CC)c1C", "TARGET_OF_ASSAY": "NCI-H522 lung", "CLASSIFICATION": "NO"}
{"MOLECULE": "Cn1cccc1/C=C1\\C(=O)Nc2ccccc21", "TARGET_OF_ASSAY": "NCI-H522 lung", "CLASSIFICATION": "NO"}
{"MOLECULE": "CCn1cc(CNc2ccc(C(=O)Nc3cc4cc(OC)c(OC)cc4c(C)n3)cc2)c(C)n1", "TARGET_OF_ASSAY": "NCI-H522 lung", "CLASSIFICATION": "YES"}
{"MOLECULE": "CCn1cc(C(=O)NN=C2CCCCCC2)c(=O)c2ccc(C)nc21", "TARGET_OF_ASSAY": "NCI-H522 lung", "CLASSIFICATION": "NO"}
{"MOLECULE": "O=C1CC2C=CCN2C=C1NC(=O)C1CCCCC1 (stereo not given)", "TARGET_OF_ASSAY": "NCI-H522 lung", "CLASSIFICATION": "NO"}
{"MOLECULE": "O=C1/C(=C/c2cccc([N+](=O)[O-])c2)COc2ccc(O)cc21", "TARGET_OF_ASSAY": "NCI-H522 lung", "CLASSIFICATION": "YES"}
{"MOLECULE": "C/C(=C(\\c1ccc(OCCN2CCCCCC2)cc1)c1ccc(OC(=O)Cc2ccccc2)cc1)c1ccc(Cl)cc1", "TARGET_OF_ASSAY": "NCI-H522 lung", "CLASSIFICATION": "NO"}
